# TGT: human CaSR (Homo sapiens, UniProt P41180)
# Construct: TT cells are cell lines that express human CaSR; endogenous in cells; host or cells: TT cells (human medullary thyroid carcinoma cell line)
# Sequence (P41180 20-1078): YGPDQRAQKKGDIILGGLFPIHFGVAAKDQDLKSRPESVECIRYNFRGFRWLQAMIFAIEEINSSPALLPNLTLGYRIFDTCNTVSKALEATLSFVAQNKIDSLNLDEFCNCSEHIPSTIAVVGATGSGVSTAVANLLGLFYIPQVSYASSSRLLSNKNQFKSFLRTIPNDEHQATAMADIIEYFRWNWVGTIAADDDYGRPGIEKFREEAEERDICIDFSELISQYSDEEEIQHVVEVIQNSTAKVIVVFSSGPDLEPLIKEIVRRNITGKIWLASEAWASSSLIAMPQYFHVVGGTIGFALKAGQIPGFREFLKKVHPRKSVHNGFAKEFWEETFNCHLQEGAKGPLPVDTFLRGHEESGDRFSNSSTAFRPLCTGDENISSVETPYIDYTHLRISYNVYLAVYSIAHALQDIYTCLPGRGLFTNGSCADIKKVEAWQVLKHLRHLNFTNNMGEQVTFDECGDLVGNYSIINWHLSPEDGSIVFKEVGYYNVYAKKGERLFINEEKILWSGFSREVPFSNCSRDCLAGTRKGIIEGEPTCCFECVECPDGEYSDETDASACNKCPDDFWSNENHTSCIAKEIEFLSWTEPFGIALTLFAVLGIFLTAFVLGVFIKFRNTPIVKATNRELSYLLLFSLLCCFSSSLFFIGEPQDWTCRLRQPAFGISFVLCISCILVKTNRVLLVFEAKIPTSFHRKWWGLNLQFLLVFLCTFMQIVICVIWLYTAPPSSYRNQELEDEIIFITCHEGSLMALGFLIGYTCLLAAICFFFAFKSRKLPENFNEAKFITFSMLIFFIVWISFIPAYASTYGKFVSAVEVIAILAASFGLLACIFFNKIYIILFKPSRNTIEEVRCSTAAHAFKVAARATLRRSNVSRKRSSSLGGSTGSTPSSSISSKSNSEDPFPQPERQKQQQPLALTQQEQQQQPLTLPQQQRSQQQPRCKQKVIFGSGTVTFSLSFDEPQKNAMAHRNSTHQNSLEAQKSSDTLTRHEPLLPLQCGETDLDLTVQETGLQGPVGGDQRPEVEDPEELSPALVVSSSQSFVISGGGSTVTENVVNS
# ASSAY_SUMMARY: Human CaSR activity measurement test (intracellular calcium in TT cells)
# Type: cell-based
# MEASUREMENT_PARAMETERS: [EC50 of test compound]/[EC50 of Compound A], intracellular calcium fluorescence
Counter-ions that a name gives are not always drawn.
Reported Relative activity with respect to Compound A values for a set of molecules
MEASURED_METRIC: Relative activity with respect to Compound A

[[record]]
molecule = "C[C@@H](NC1CC[C@H](c2ccc(-c3nn[nH]n3)cc2)C1)c1cccc2ccccc12 (stereo partly drawn) [Example 4, hydrochloride]"
val = 0.33

[[record]]
molecule = "C[C@@H](N[C@H]1CC[C@@H](c2cccc(-c3nn[nH]n3)c2)C1)c1cccc2ccccc12 [Example 1, hydrochloride]"
val = 0.30

[[record]]
molecule = "C[C@@H](N[C@H]1CC[C@@H](c2ccc(OCc3nn[nH]n3)cc2)C1)c1ccc(F)c2ccccc12 [Example 39, hydrochloride]"
val = 0.07

[[record]]
molecule = "C[C@@H](N[C@H]1CC[C@@H](c2ccc(OCc3nn[nH]n3)cc2)C1)c1cccc2ccccc12 [Example 38, hydrochloride]"
val = 0.13

[[record]]
molecule = "C[C@@H](N[C@H]1CC[C@@H](c2ccc(NCCC(=O)O)cc2)C1)c1cccc2ccccc12 [Example 34, hydrochloride]"
val = 0.26

[[record]]
molecule = "C[C@@H](N[C@H]1CC[C@H](c2ccc(CCC(=O)O)cc2)C1)c1ccc(F)c2ccccc12 [Example 30, hydrochloride]"
val = 0.31

[[record]]
molecule = "C[C@@H](N[C@H]1CC[C@@H](c2ccc(-c3nn[nH]n3)cc2)C1)c1ccc(F)c2ccccc12 [Example 26, hydrochloride]"
val = 0.27

[[record]]
molecule = "C[C@@H](N[C@H]1CC[C@@H](c2ccc(OCC(=O)O)cc2)C1)c1cccc2ccccc12 [Example 10, hydrochloride]"
val = 0.28

[[record]]
molecule = "C[C@@H](N[C@H]1CC[C@@H](c2ccc(SCC(=O)O)cc2)C1)c1cccc2ccccc12 [Example 36, hydrochloride]"
val = 0.15

[[record]]
molecule = "C[C@@H](N[C@H]1CC[C@@H](c2ccc(CCC(=O)O)cc2)C1)c1cccc2ccccc12 [Example 9, hydrochloride]"
val = 0.38

[[record]]
molecule = "Cc1ccc([C@@H](C)NC2CC[C@@H](c3ccc(OCC(=O)O)cc3)C2)c2ccccc12 (stereo partly drawn)"
val = 0.42

[[record]]
molecule = "C[C@@H](N[C@H]1CC[C@@H](c2cccc(CC(=O)O)c2)C1)c1ccc(F)c2ccccc12 [Example 24, hydrochloride]"
val = 0.30


* * *

# TGT: human CaSR (Homo sapiens)
# Construct: TT cells are cell lines that express human CaSR; endogenous in cells; host or cells: TT cells (human medullary thyroid carcinoma cell line)
# ASSAY_SUMMARY: Human CaSR activity measurement test (intracellular calcium in TT cells)
# Format: cell-based
# MEASUREMENT_PARAMETERS: [EC50 of test compound]/[EC50 of Compound A], intracellular calcium fluorescence
Structures can show the parent of a compound that is named as a salt.
Reported Relative activity with respect to Compound A values for a set of compounds
MEASURED_METRIC: Relative activity with respect to Compound A

[[record]]
compound = "C[C@@H](N[C@H]1CC[C@@H](c2ccc(OCC(=O)O)cc2)C1)c1ccc(F)c2ccccc12"
tgt = "human CaSR (Homo sapiens)"
val = 0.30

[[record]]
compound = "C[C@@H](N[C@H]1CC[C@H](c2ccc(OCC(=O)O)cc2)C1)c1ccc(F)c2ccccc12"
tgt = "human CaSR (Homo sapiens)"
val = 0.17

[[record]]
compound = "C[C@@H](N[C@H]1CC[C@@H](c2ccc(SCC(=O)O)cc2)C1)c1ccc(F)c2ccccc12 [Example 37, hydrochloride]"
tgt = "human CaSR (Homo sapiens)"
val = 0.10

[[record]]
compound = "C[C@@H](N[C@H]1CC[C@H](c2ccc(CCC(=O)O)cc2)C1)c1cccc2ccccc12 [Example 29, hydrochloride]"
tgt = "human CaSR (Homo sapiens)"
val = 0.30

[[record]]
compound = "C[C@@H](N[C@H]1CC[C@@H](c2ccc(CC(=O)O)cc2)C1)c1cccc2ccccc12 [Example 8, hydrochloride]"
tgt = "human CaSR (Homo sapiens)"
val = 0.61

[[record]]
compound = "C[C@@H](NC1CC[C@@H](c2ccc(OCC(=O)O)cc2)C1)c1cccc2cc(F)ccc12 (some centres unmarked)"
tgt = "human CaSR (Homo sapiens)"
val = 0.38

[[record]]
compound = "C[C@@H](N[C@H]1CC[C@@H](c2ccc(OC(C)(C)C(=O)O)cc2)C1)c1ccc(F)c2ccccc12 [Example 31, hydrochloride]"
tgt = "human CaSR (Homo sapiens)"
val = 0.36

[[record]]
compound = "C[C@@H](N[C@H]1CC[C@@H](c2ccc(OC(C)(C)C(=O)O)c(F)c2)C1)c1cccc2ccccc12 [Example 15, hydrochloride]"
tgt = "human CaSR (Homo sapiens)"
val = 0.38

[[record]]
compound = "C[C@@H](N[C@H]1CC[C@@H](c2ccc(NCC(=O)O)cc2)C1)c1cccc2ccccc12 [Example 33, hydrochloride]"
tgt = "human CaSR (Homo sapiens)"
val = 0.23

[[record]]
compound = "C[C@@H](N[C@H]1CC[C@@H](c2ccc(CC(=O)O)cc2)C1)c1ccc(F)c2ccccc12 [Example 25, hydrochloride]"
tgt = "human CaSR (Homo sapiens)"
val = 0.34

[[record]]
compound = "C[C@@H](N[C@H]1CC[C@@H](c2ccc(-c3nn[nH]n3)cc2)C1)c1cccc2ccccc12 [Example 3, hydrochloride]"
tgt = "human CaSR (Homo sapiens)"
val = 0.18

[[record]]
compound = "C[C@@H](NC1CC[C@@H](c2ccc(OCC(=O)O)cc2)C1)c1ccc(F)c2ccccc12 (mixture of isomers)"
tgt = "human CaSR (Homo sapiens)"
val = 0.72

[[record]]
compound = "C[C@@H](N[C@H]1CC[C@@H](c2ccc(C(=O)NCC(=O)O)cc2)C1)c1cccc2ccccc12 [Example 5, hydrochloride]"
tgt = "human CaSR (Homo sapiens)"
val = 0.52

[[record]]
compound = "Cc1cc([C@@H]2CC[C@H](N[C@H](C)c3cccc4ccccc34)C2)ccc1OCC(=O)O [Example 32, hydrochloride]"
tgt = "human CaSR (Homo sapiens)"
val = 0.26


Recorded values, source patent US9133140B2.
